TARGET SYSTEM: LOX-1 (lipoxygenase from Glycine max, type I-B) (Glycine max)
Sequence (P08170 1-839): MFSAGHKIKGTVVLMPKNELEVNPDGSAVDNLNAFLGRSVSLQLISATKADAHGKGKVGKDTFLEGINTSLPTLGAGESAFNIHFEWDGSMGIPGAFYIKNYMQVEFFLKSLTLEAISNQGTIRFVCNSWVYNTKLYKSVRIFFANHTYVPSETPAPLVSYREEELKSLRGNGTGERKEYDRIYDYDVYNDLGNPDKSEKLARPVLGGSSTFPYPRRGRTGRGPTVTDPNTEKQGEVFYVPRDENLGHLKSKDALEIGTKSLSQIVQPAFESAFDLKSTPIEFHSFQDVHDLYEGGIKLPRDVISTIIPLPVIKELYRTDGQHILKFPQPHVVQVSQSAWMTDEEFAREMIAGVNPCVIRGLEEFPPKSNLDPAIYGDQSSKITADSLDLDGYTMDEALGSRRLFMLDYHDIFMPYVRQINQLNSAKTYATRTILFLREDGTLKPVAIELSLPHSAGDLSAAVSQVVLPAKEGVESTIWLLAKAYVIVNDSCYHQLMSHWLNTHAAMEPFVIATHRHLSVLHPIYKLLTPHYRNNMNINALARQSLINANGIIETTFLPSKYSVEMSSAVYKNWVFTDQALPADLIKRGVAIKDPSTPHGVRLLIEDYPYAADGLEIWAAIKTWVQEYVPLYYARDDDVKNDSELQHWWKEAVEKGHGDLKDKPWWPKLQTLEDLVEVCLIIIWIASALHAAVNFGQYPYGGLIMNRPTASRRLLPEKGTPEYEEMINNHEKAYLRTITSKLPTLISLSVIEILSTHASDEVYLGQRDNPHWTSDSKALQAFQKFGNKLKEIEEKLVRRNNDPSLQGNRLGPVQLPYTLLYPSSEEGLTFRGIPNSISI
READOUT TYPE: IC50 (µM)
Give bare numbers, in µM.

### Prompt If you can, please state the reported IC50 value of `COc1cc(O)c2c(c1)C(=O)c1cc(C)cc(O)c1C2=O` .
### Response 61.7
